- protocol: Pharmacokinetic analysis in male SD rats after IV bolus, plasma by LC-MS/MS
- Format: in vivo
- assay-setup: rat, IV bolus 0.04 mg/kg, read-out: Vdss (apparent volume of distribution at equilibrium)
measure-name: Vd (L/kg)

compound | units | Vd
[2H]C([2H])([2H])C(O)(C([2H])([2H])[2H])C([2H])([2H])n1c(COCC)nc2c(N)nc3ccccc3c21 [Compound 113] | L/kg | 2.61
CCOCc1nc2c(N)nc3ccccc3c2n1CC(C)(C)O [Resiquimod, reference compound] | L/kg | 2.46
[2H]C([2H])([2H])C([2H])([2H])OCc1nc2c(N)nc3ccccc3c2n1CC(C)(C)O [Compound 107] | L/kg | 3.23
[2H]C([2H])([2H])C(O)(Cn1c(COCC)nc2c(N)nc3ccccc3c21)C([2H])([2H])[2H] [Compound 104] | L/kg | 2.62

----------
- protocol: Pharmacokinetic analysis in male SD rats after IV bolus, plasma by LC-MS/MS
- Assay type: in vivo
- assay-setup: rat, IV bolus 0.04 mg/kg, time zero to last measurable concentration
measure-name: AUC(0-t) (ng·h/mL)

molecule | units | AUC(0-t)
[2H]C([2H])([2H])C(O)(Cn1c(COCC)nc2c(N)nc3ccccc3c21)C([2H])([2H])[2H] | ng·h/mL | 56.2
CCOCc1nc2c(N)nc3ccccc3c2n1CC(C)(C)O [Resiquimod, reference compound] | ng·h/mL | 42.1
[2H]C([2H])([2H])C(O)(C([2H])([2H])[2H])C([2H])([2H])n1c(COCC)nc2c(N)nc3ccccc3c21 | ng·h/mL | 49.3
[2H]C([2H])([2H])C([2H])([2H])OCc1nc2c(N)nc3ccccc3c2n1CC(C)(C)O | ng·h/mL | 54.8

----------
- protocol: Pharmacokinetic analysis in male SD rats after IV bolus, plasma by LC-MS/MS
- Assay type: in vivo
- assay-setup: rat, IV bolus 0.04 mg/kg, zero up to ∞
- Protocol: Each of the tested compounds was administered as an IV bolus (3 rats per group) at a dose 0.04 mg/kg. Rats were fasted at least 12 hours prior to administration of test compound. […] Blood samples were processed for plasma and analyzed by LC-MS/MS for the following pharmacokinetic parameters: Cmax, T1/2, CL, Vdss, AUC0-last, AUC0-∞, MRT0-last, and MRT0-∞.
measure-name: AUC(0-inf) (ng·h/mL)

molecule | measure-name | units | test-value
[2H]C([2H])([2H])C(O)(C([2H])([2H])[2H])C([2H])([2H])n1c(COCC)nc2c(N)nc3ccccc3c21 | AUC(0-inf) | ng·h/mL | 53
[2H]C([2H])([2H])C([2H])([2H])OCc1nc2c(N)nc3ccccc3c2n1CC(C)(C)O | AUC(0-inf) | ng·h/mL | 59.4
[2H]C([2H])([2H])C(O)(Cn1c(COCC)nc2c(N)nc3ccccc3c21)C([2H])([2H])[2H] | AUC(0-inf) | ng·h/mL | 60.4
CCOCc1nc2c(N)nc3ccccc3c2n1CC(C)(C)O [Resiquimod, reference compound] | AUC(0-inf) | ng·h/mL | 45.9

----------
- protocol: Pharmacokinetic analysis in male SD rats after IV bolus, plasma by LC-MS/MS
- Assay type: in vivo
- assay-setup: rat, IV bolus 0.04 mg/kg, read-out: MRT0-last (Mean Residence Time)
- Experimental: Each of the tested compounds was administered as an IV bolus (3 rats per group) at a dose 0.04 mg/kg. Rats were fasted at least 12 hours prior to administration of test compound. […] Blood samples were processed for plasma and analyzed by LC-MS/MS for the following pharmacokinetic parameters: Cmax, T1/2, CL, Vdss, AUC0-last, AUC0-∞, MRT0-last, and MRT0-∞.
measure-name: MRT last (h)

These recorded examples may help you get a feel for the data.
compound | MRT last (h)
[2H]C([2H])([2H])C(O)(Cn1c(COCC)nc2c(N)nc3ccccc3c21)C([2H])([2H])[2H] | 1.5
[2H]C([2H])([2H])C(O)(C([2H])([2H])[2H])C([2H])([2H])n1c(COCC)nc2c(N)nc3ccccc3c21 | 1.26

A: [2H]C([2H])([2H])C([2H])([2H])OCc1nc2c(N)nc3ccccc3c2n1CC(C)(C)O
B: CCOCc1nc2c(N)nc3ccccc3c2n1CC(C)(C)O [Resiquimod, reference compound]
Input: Min MRT last? A | B Mark your selection by writing its label.
Output: B

----------
- protocol: Pharmacokinetic analysis in male SD rats after IV bolus, plasma by LC-MS/MS
- Assay type: in vivo
- assay-setup: rat, IV bolus 0.04 mg/kg, read-out: MRT0-Inf (Mean Residence Time)
measure-name: MRT inf (h)

compound | MRT inf (h)
[2H]C([2H])([2H])C([2H])([2H])OCc1nc2c(N)nc3ccccc3c2n1CC(C)(C)O [Compound 107] | 2.43
[2H]C([2H])([2H])C(O)(Cn1c(COCC)nc2c(N)nc3ccccc3c21)C([2H])([2H])[2H] [Compound 104] | 2.1
CCOCc1nc2c(N)nc3ccccc3c2n1CC(C)(C)O [Resiquimod, reference compound] | 1.37
[2H]C([2H])([2H])C(O)(C([2H])([2H])[2H])C([2H])([2H])n1c(COCC)nc2c(N)nc3ccccc3c21 [Compound 113] | 1.79
